FYI, the data here is from paper PMC3605141.

tested.target: NIN(520-878)-myc (C-ter) (Lotus japonicus) (UniProt Q9S7B1)
Sequence: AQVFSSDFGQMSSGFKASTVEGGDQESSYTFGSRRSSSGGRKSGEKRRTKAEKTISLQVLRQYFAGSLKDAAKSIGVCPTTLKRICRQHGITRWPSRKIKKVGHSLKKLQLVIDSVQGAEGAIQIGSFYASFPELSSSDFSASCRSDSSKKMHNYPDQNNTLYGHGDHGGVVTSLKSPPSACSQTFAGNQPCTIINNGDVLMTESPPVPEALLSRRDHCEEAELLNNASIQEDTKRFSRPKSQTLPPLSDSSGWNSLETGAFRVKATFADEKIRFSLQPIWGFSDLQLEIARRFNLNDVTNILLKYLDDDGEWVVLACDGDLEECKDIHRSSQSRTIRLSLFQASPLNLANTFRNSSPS
test.method.notes: EMSA
recorded.conditions: 20 mM Hepes-KOH pH 7.9, 50 mM KCl, 1 mM MgCl2, 1 mM DTT, 4% glycerol, 0.1% Triton X-100, 2 ug BSA, 400 ng dIdC, 20 ul, 30 min at room temperature; 10-30 fmol …
assay.endpoint: binding

GAGAAAATGCTAGTTTTTAAAAAGAGAACCTTTATTTTTTTAAATATTGTATTTACGAAGAAAACTGAAAAAGAACAGATGATTTCAGTTAGATTGCTTGGCCCCCTTCTTATCTGGACAGGCATTTTCCTG (double strand) [LjNF-YA1 probe 9] :: binds
TCACTTTGGTGGATGTGGATATACAATTCTTTACTTTCAATACAAAAAACCCCATCAATTTACTTGTATCTTTAGAGCTTTCCAAGGGATATTTC (double strand) [LjNF-YB1 probe 10] :: binds
TCTTTTGAGCGGCCTCAAAGGCCTTCTCAGCATCCATTAAC (double strand) [LjNF-YB1 probe 11] :: no binding
GGCCTTTGAGGCCGCTCAAAAGAGTGAAGATGAATATGAAAT (double strand) [LjNF-YB1 probe 12] :: no binding
AAAGAGTGAAGATGAATATGAAATATCCCTTGGAAAGCTCTAAAG (double strand) [LjNF-YB1 probe 13] :: no binding
GTTAATGGATGCTGAGAAGGCCTTTGAGGCCGCTCAAAAGAGTGAAGATGAATATGAAATATCCCTTGGAAAGCTCTAAAG (double strand) [LjNF-YB1 probe 9] :: binds
TACAATTCTTTACTTTCAATACAAAAAACCCCATCAATTTACTTGTATCTTTAG (double strand) [LjNF-YB1 probe 15] :: no binding

Now, please, on to the next sequence.
Entry under test: TCACTTTGGTGGATGTGGATATACAATTCTTTACTTTCAATACAAAAAACC (double strand) [LjNF-YB1 probe 16] . Its binding was no binding
